# Target Or Test System: Histone deacetylase 2 (Homo sapiens, UniProt Q92769)
# Sequence (Q92769 whole entry): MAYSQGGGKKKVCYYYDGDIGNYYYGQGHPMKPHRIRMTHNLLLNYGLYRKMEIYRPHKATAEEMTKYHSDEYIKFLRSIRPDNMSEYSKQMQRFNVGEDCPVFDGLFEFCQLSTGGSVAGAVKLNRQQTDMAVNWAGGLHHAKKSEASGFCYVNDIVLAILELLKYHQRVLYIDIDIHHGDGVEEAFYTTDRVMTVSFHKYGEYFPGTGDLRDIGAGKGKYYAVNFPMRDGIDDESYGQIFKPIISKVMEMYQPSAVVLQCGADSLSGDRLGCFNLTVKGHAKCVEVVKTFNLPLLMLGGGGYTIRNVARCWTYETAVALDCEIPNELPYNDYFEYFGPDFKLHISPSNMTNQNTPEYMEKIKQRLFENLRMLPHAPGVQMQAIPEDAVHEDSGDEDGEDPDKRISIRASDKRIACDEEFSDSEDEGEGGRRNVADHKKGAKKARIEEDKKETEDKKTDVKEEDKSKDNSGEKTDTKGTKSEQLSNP
# Assay Overview: Inhibition of human recombinant His-tagged HDAC2 ([…]) expressed in baculovirus infected insect cells using FLUOR DE LYS Green as substrate preincubated for 10 mins followed by substrate addition and measured after 30 mins by fluorescence method
Observed Property: IC50 (µM)
Record the value in µM, omitting the unit from your answer.

COc1ccc2c(=O)n(-c3ccccc3Cl)c(SCc3ccc(C(=O)Nc4ccccc4N)cc3)nc2c1 | 0.61
COc1ccc2c(=O)n(C)c(SCc3ccc(C(=O)Nc4ccccc4N)cc3)nc2c1 | 0.16
Cn1c(SCc2ccc(C(=O)Nc3ccccc3N)cc2)nc2cc(Br)ccc2c1=O | 0.53
CCn1c(SCc2ccc(/C=C/C(=O)Nc3ccccc3N)cc2)nc2cc(OC)ccc2c1=O | 0.18

Could you now consider this next compound?
Data request, read-out IC50, for `Nc1ccc(F)cc1NC(=O)c1ccc(CNC(=O)/C=C/c2cccnc2)cc1`
0.31

* * *

# System: SMMC-7721
# Assay Overview: Induction of apoptosis in human SMMC7721 cells assessed as necrotic cells at 1 uM incubated for 48 hrs by Annexin-V-FITC/propidium iodide staining based flow cytometry (Rvb=1.88%)
# Assay type: functional
Observed Property: Activity (%)
Field: numeric (%). Do not append units.

# annotated cases, reported Activity shown
CC(=O)Nc1ccc(C(=O)Nc2ccccc2N)cc1 [TACEDINALINE] | 1.74
COc1ccc2c(=O)n(C)c(SCc3ccc(C(=O)Nc4ccccc4N)cc3)nc2c1 | 10.8
CCn1c(SCc2ccc(/C=C/C(=O)Nc3ccccc3N)cc2)nc2cc(OC)ccc2c1=O | 8.91

Query: Activity; subject: `Cn1c(SCc2ccc(C(=O)Nc3ccccc3N)cc2)nc2cc(Br)ccc2c1=O`
13.6

Any idea what its Activity is? The molecule is `COc1ccc2c(=O)n(-c3ccccc3Cl)c(SCc3ccc(C(=O)Nc4ccccc4N)cc3)nc2c1`
7.63

Param item = Nc1ccccc1NC(=O)c1ccc(CNC(=O)OCc2cccnc2)cc1 [ENTINOSTAT] ; retrieve measured Activity.
2.5

GET /values?readout=Activity&item= `Nc1ccc(F)cc1NC(=O)c1ccc(CNC(=O)/C=C/c2cccnc2)cc1`
2.34

* * *

Measured inhibition at 8 µM, listed per entry for reference.
# System: SMMC-7721
# Assay Overview: Antiproliferative activity against human SMMC7721 cells assessed as reduction in cell growth at 8 uM incubated for 72 hrs by CCK-8 assay relative to control
# Format: functional
# Reported Conditions: SMMC-7721, 72 h
Number plus unit, in that order.

Some entries whose results are on file:
Cc1ccc2nc(SCc3ccc(/C=C/C(=O)Nc4ccccc4N)cc3)n(C)c(=O)c2c1 | 57.6%
Cc1ccc2c(=O)n(C)c(SCc3ccc(/C=C/C(=O)Nc4ccccc4N)cc3)nc2c1 | 63.6%
CCCCn1c(SCc2ccc(/C=C/C(=O)Nc3ccccc3N)cc2)nc2cc(F)ccc2c1=O | 29%
COc1ccc2c(=O)n(-c3cccc(Cl)c3)c(SCC(=O)Nc3ccccc3N)nc2c1 | 38.1%
COc1ccc2c(=O)n(-c3cccc(Cl)c3)c(SCc3ccc(C(=O)Nc4ccccc4N)cc3)nc2c1 | 27%
COc1ccc2c(=O)n(CC/C=C/[S+](C)[O-])c(SCc3ccc(C(=O)Nc4ccccc4N)cc3)nc2c1 (centres undefined) | 57.2%
Cc1cccc2c(=O)n(C)c(SCc3ccc(/C=C/C(=O)Nc4ccccc4N)cc3)nc12 | 36.4%
CCn1c(SCc2ccc(C(=O)Nc3ccccc3N)cc2)nc2cc(OC)ccc2c1=O | 45.8%

Any idea what inhibition at 8 µM was measured for `Cn1c(SCc2ccc(/C=C/C(=O)Nc3ccccc3N)cc2)nc2cc(Br)ccc2c1=O` ?
15.2%
